Biological target: human M2R (Homo sapiens, UniProt P08172)
Construct: expressed in transfected cells; host or cells: HEK-293T
Sequence (P08172 whole entry): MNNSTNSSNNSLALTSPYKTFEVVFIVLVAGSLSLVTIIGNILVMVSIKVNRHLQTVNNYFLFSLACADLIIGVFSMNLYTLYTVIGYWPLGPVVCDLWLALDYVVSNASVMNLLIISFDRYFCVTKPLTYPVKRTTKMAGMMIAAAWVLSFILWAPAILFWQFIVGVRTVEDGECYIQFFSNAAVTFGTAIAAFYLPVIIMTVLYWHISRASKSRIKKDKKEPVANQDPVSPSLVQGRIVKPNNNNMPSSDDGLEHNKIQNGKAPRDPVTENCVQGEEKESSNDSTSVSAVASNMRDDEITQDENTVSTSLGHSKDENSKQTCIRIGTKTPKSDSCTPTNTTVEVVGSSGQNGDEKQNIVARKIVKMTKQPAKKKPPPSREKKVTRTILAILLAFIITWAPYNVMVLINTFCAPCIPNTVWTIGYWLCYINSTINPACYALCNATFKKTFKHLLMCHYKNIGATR
Assay: GloSensor cAMP assay (Gi-mediated cAMP inhibition)
Assay type: cell-based
Conditions: agonist; read-out: IC50 at M2 receptor
Method: To measure M2 muscarinic receptor induced (Gi-mediated) cAMP inhibition, HEK-293T cells (procured from NCCS, Pune) were co-transfected with human M2R and luciferase based cAMP biosensor (pGloSensor™-22F plasmid; Promega) using PEImax method of transfection in the ratio of 1:1. […] FSK incubation was followed by incubation at 37° C. for 10-15 minutes and measurement of luminescence per well using luminescence plate reader (BMG Labtech). […]
assay_endpoint: pIC50
Please treat pIC50 as minus the base-10 logarithm of the molar concentration.

-- ask Could you tell me which pIC50 is on file for O=C1CCC[C@@H]2[C@@H]1C[C@@]1(S(=O)(=O)c3ccccc3)C(=O)[C@@H]3c4ccccc4[C@H]1N32 ?
-- reply 8.40

====

Target: human M1R (Homo sapiens)
Construct: expressed in transfected cells; host or cells: HEK-293T
Sequence (P11229 whole entry): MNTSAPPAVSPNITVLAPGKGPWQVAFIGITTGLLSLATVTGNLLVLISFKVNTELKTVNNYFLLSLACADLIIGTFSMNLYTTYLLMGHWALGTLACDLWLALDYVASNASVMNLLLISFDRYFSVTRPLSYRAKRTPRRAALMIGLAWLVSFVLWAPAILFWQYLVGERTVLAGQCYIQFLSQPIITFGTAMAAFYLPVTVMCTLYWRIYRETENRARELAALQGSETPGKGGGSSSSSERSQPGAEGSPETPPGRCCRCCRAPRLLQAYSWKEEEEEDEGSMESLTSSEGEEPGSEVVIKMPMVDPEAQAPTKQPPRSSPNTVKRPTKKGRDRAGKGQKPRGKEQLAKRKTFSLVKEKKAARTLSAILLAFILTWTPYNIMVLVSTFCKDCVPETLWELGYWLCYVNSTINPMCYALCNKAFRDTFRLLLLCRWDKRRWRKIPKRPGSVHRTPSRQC
Assay: NFAT-luciferase assay, M1
Format: cell-based
Settings: antagonist; read-out: IC50 at M1 receptor
assay_endpoint: IC50

-- ask Name the reported IC50 value associated with the compound Cc1ccc(S(=O)(=O)[C@]23CC4=C(OS(=O)(=O)C(F)(F)F)CCC[C@H]4N4[C@H](C2=O)c2ccccc2[C@@H]43)cc1
-- reply ≤ 1000 nM

Taken from patent US11065235B2.
